# assay notes: Dissolution test against cold water at 10° C.
# Format: physicochemical
# condition context: 20 ml water 10° C., about 300 rpm; 0.5 g trehalose or 0.2 g maltose
Each entry below lists one item and its recorded Time required for dissolution, No. 2 value.
# number then unit; no other words

>>> readout_value("OC[C@H]1O[C@H](O[C@H]2[C@H](O)[C@@H](O)C(O)O[C@@H]2CO)[C@H](O)[C@@H](O)[C@@H]1O (mixture of isomers) [Hydrous crystalline β-maltose (Control), maltose]")
"113 s"

Identify measured Time required for dissolution, No. 2 corresponding to OC[C@H]1O[C@H](O[C@H]2O[C@H](CO)[C@@H](O)[C@H](O)[C@H]2O)[C@H](O)[C@@H](O)[C@@H]1O [Hydrous crystalline trehalose (Control), α-D-glucosyl α-D-glucoside] 130 s

Identify measured Time required for dissolution, No. 2 corresponding to OC[C@H]1O[C@H](O[C@H]2[C@H](O)[C@@H](O)C(O)O[C@@H]2CO)[C@H](O)[C@@H](O)[C@@H]1O (mixture of isomers) [Anhydrous crystalline α-maltose (Control)] [reference compound] 35 s

Identify measured Time required for dissolution, No. 2 corresponding to OC[C@H]1O[C@H](O[C@H]2O[C@H](CO)[C@@H](O)[C@H](O)[C@H]2O)[C@H](O)[C@@H](O)[C@@H]1O [Anhydrous crystalline trehalose (Control)] [α-D-glucosyl α-D-glucoside, reference compound] 87 s

----------
Each entry below lists one item and its recorded Time required for dissolution, No. 1 value.
# assay notes: Dissolution test against cold water at 10° C.
# Assay type: physicochemical
# condition context: 20 ml water 10° C., about 300 rpm; 0.5 g trehalose or 0.2 g maltose
Number only, in s; omit the unit.

See these solved cases before continuing.
>>> readout_value("OC[C@H]1O[C@H](O[C@H]2[C@H](O)[C@@H](O)C(O)O[C@@H]2CO)[C@H](O)[C@@H](O)[C@@H]1O (mixture of isomers) [Hydrous crystalline β-maltose (Control), maltose]")
118
>>> readout_value("OC[C@H]1O[C@H](O[C@H]2O[C@H](CO)[C@@H](O)[C@H](O)[C@H]2O)[C@H](O)[C@@H](O)[C@@H]1O [Anhydrous crystalline trehalose (Control)] [α-D-glucosyl α-D-glucoside, reference compound]")
90
>>> readout_value("OC[C@H]1O[C@H](O[C@H]2[C@H](O)[C@@H](O)C(O)O[C@@H]2CO)[C@H](O)[C@@H](O)[C@@H]1O (mixture of isomers) [Anhydrous crystalline α-maltose (Control)] [reference compound]")
37

Kindly review the next molecule as well.
Identify measured Time required for dissolution, No. 1 corresponding to OC[C@H]1O[C@H](O[C@H]2O[C@H](CO)[C@@H](O)[C@H](O)[C@H]2O)[C@H](O)[C@@H](O)[C@@H]1O [Hydrous crystalline trehalose (Control), α-D-glucosyl α-D-glucoside] 106

----------
Each entry below lists one item and its recorded Oil-keeping ability value.
# assay notes: Oil-keeping ability with salad oil
# Assay type: physicochemical
# Design: key: (5 g salad oil / g saccharide added at endpoint) x 100
# condition context: (5 g salad oil / amount of added saccharide) x 100
No unit in the answer, please; the number alone is enough.

See these solved cases before continuing.
>>> readout_value("OC[C@H]1O[C@H](O[C@H]2O[C@H](CO)[C@@H](O)[C@H](O)[C@H]2O)[C@H](O)[C@@H](O)[C@@H]1O [Anhydrous crystalline trehalose (Control)] [α-D-glucosyl α-D-glucoside, reference compound]")
38.5
>>> readout_value("OC[C@H]1O[C@H](O[C@H]2O[C@H](CO)[C@@H](O)[C@H](O)[C@H]2O)[C@H](O)[C@@H](O)[C@@H]1O [Hydrous crystalline trehalose (Control), α-D-glucosyl α-D-glucoside]")
38.5
>>> readout_value("OC[C@H]1O[C@H](O[C@H]2O[C@H](CO)[C@@H](O)[C@H](O)[C@H]2O)[C@H](O)[C@@H](O)[C@@H]1O [Porous anhydrous crystalline trehalose (treated at 70° C. fo] [α-D-glucosyl α-D-glucoside]")
62.5
>>> readout_value("OC[C@H]1O[C@H](O[C@H]2[C@H](O)[C@@H](O)C(O)O[C@@H]2CO)[C@H](O)[C@@H](O)[C@@H]1O (mixture of isomers) [Anhydrous crystalline α-maltose (Control)] [reference compound]")
41.7

Kindly review the next molecule as well.
Identify measured Oil-keeping ability corresponding to OC[C@H]1O[C@H](O[C@H]2[C@H](O)[C@@H](O)C(O)O[C@@H]2CO)[C@H](O)[C@@H](O)[C@@H]1O (mixture of isomers) [Anhydrous crystalline β-maltose (Control)] [reference compound] 40

----------
Each entry below lists one item and its recorded Time required for dissolution, No. 3 value.
# assay notes: Dissolution test against cold water at 10° C.
# Assay type: physicochemical
# condition context: 20 ml water 10° C., about 300 rpm; 0.5 g trehalose or 0.2 g maltose
# Experimental: A dissolution test against cold water at 10° C. was carried out using the porous anhydrous crystalline trehalose prepared by treating at 70° C. for 60 min in Example 1, the porous anhydrous crystalline maltose prepared by the method in Example 3, and the porous hydrous crystalline maltose prepared by the method in Example 5, as samples. The results were compared with those of the controls, anhydrous crystalline trehalose, hydrous crystalline trehalose, and hydrous crystalline maltose. […]
Number only, in s; omit the unit.

>>> readout_value("OC[C@H]1O[C@H](O[C@H]2[C@H](O)[C@@H](O)C(O)O[C@@H]2CO)[C@H](O)[C@@H](O)[C@@H]1O (mixture of isomers) [Hydrous crystalline β-maltose (Control), maltose]")
114
>>> readout_value("OC[C@H]1O[C@H](O[C@H]2O[C@H](CO)[C@@H](O)[C@H](O)[C@H]2O)[C@H](O)[C@@H](O)[C@@H]1O [Hydrous crystalline trehalose (Control), α-D-glucosyl α-D-glucoside]")
121
>>> readout_value("OC[C@H]1O[C@H](O[C@H]2[C@H](O)[C@@H](O)C(O)O[C@@H]2CO)[C@H](O)[C@@H](O)[C@@H]1O (mixture of isomers) [Anhydrous crystalline α-maltose (Control)] [reference compound]")
39

Kindly review the next compound as well.
Identify measured Time required for dissolution, No. 3 corresponding to OC[C@H]1O[C@H](O[C@H]2O[C@H](CO)[C@@H](O)[C@H](O)[C@H]2O)[C@H](O)[C@@H](O)[C@@H]1O [Anhydrous crystalline trehalose (Control)] [α-D-glucosyl α-D-glucoside, reference compound] 96

----------
# assay notes: Pore size distribution by the mercury filling method
# Type: physicochemical
measurement label: Intrusion volume

>>> readout_value("OC[C@H]1O[C@H](O[C@H]2[C@H](O)[C@@H](O)C(O)O[C@@H]2CO)[C@H](O)[C@@H](O)[C@@H]1O (mixture of isomers) [Hydrous crystalline β-maltose (Control), maltose]")
"(No pore)"
>>> readout_value("OC[C@H]1O[C@H](O[C@H]2[C@H](O)[C@@H](O)C(O)O[C@@H]2CO)[C@H](O)[C@@H](O)[C@@H]1O (mixture of isomers) [Anhydrous crystalline α-maltose (Control)] [reference compound]")
"(No pore)"

----------
# assay notes: Specific surface area by nitrogen adsorption isotherms (BET)
# Format: physicochemical
# condition context: nitrogen adsorption isotherms, BET
Each entry below lists one item and its recorded Specific surface area value.
Number only, in m^2/g; omit the unit.

See these solved cases before continuing.
>>> readout_value("OC[C@H]1O[C@H](O[C@H]2O[C@H](CO)[C@@H](O)[C@H](O)[C@H]2O)[C@H](O)[C@@H](O)[C@@H]1O [Porous anhydrous crystalline trehalose (treated at 50° C. fo] [α-D-glucosyl α-D-glucoside]")
3.306
>>> readout_value("OC[C@H]1O[C@H](O[C@H]2[C@H](O)[C@@H](O)C(O)O[C@@H]2CO)[C@H](O)[C@@H](O)[C@@H]1O (mixture of isomers) [Hydrous crystalline β-maltose (Control), maltose]")
0.46

Kindly review the next molecule as well.
Identify measured Specific surface area corresponding to OC[C@H]1O[C@H](O[C@H]2O[C@H](CO)[C@@H](O)[C@H](O)[C@H]2O)[C@H](O)[C@@H](O)[C@@H]1O [Porous anhydrous crystalline trehalose (treated at 70° C. fo] [α-D-glucosyl α-D-glucoside] 2.513

----------
# assay notes: Pore size distribution by the mercury filling method
# Type: physicochemical
measurement label: Intrusion volume (mL/g)
Number only, in mL/g; omit the unit.

Identify measured Intrusion volume corresponding to OC[C@H]1O[C@H](O[C@H]2O[C@H](CO)[C@@H](O)[C@H](O)[C@H]2O)[C@H](O)[C@@H](O)[C@@H]1O [Anhydrous crystalline trehalose (Control)] [α-D-glucosyl α-D-glucoside, reference compound] 0.03

----------
# assay notes: Pore size distribution by the mercury filling method
# Type: physicochemical
# condition context: control maltose values are from space between particles, not pores
measurement label: Median pore diameter (μm)
Number only, in μm; omit the unit.

See these solved cases before continuing.
>>> readout_value("OC[C@H]1O[C@H](O[C@H]2[C@H](O)[C@@H](O)C(O)O[C@@H]2CO)[C@H](O)[C@@H](O)[C@@H]1O (mixture of isomers) [Hydrous crystalline β-maltose (Control), maltose]")
11.20
>>> readout_value("OC[C@H]1O[C@H](O[C@H]2[C@H](O)[C@@H](O)C(O)O[C@@H]2CO)[C@H](O)[C@@H](O)[C@@H]1O (mixture of isomers) [Anhydrous crystalline β-maltose (Control)] [reference compound]")
14.70
>>> readout_value("OC[C@H]1O[C@H](O[C@H]2O[C@H](CO)[C@@H](O)[C@H](O)[C@H]2O)[C@H](O)[C@@H](O)[C@@H]1O [Porous anhydrous crystalline trehalose (treated at 50° C. fo] [α-D-glucosyl α-D-glucoside]")
0.21

Identify measured Median pore diameter corresponding to OC[C@H]1O[C@H](O[C@H]2O[C@H](CO)[C@@H](O)[C@H](O)[C@H]2O)[C@H](O)[C@@H](O)[C@@H]1O [Porous anhydrous crystalline trehalose (treated at 70° C. fo] [α-D-glucosyl α-D-glucoside] 0.29

Identify measured Median pore diameter corresponding to OC[C@H]1O[C@H](O[C@H]2[C@H](O)[C@@H](O)C(O)O[C@@H]2CO)[C@H](O)[C@@H](O)[C@@H]1O (mixture of isomers) [Porous hydrous crystalline maltose, maltose] 2.82

Identify measured Median pore diameter corresponding to OC[C@H]1O[C@H](O[C@H]2O[C@H](CO)[C@@H](O)[C@H](O)[C@H]2O)[C@H](O)[C@@H](O)[C@@H]1O [Anhydrous crystalline trehalose (Control)] [α-D-glucosyl α-D-glucoside, reference compound] 0.40

Identify measured Median pore diameter corresponding to OC[C@H]1O[C@H](O[C@H]2[C@H](O)[C@@H](O)C(O)O[C@@H]2CO)[C@H](O)[C@@H](O)[C@@H]1O (mixture of isomers) [Porous anhydrous crystalline maltose, maltose] 1.26

Identify measured Median pore diameter corresponding to OC[C@H]1O[C@H](O[C@H]2[C@H](O)[C@@H](O)C(O)O[C@@H]2CO)[C@H](O)[C@@H](O)[C@@H]1O (mixture of isomers) [Anhydrous crystalline α-maltose (Control)] [reference compound] 13.00
